molecular target: androgen receptor (AR) (Homo sapiens); assay: Agonist activity at AR (unknown origin) expressed in human LNCaP cells incubated for 20 hrs by luciferase reporter gene assay relative to mifepristone; format: cell-based; details: human LNCaP cells expressing AR
Sequence (P10275 whole entry): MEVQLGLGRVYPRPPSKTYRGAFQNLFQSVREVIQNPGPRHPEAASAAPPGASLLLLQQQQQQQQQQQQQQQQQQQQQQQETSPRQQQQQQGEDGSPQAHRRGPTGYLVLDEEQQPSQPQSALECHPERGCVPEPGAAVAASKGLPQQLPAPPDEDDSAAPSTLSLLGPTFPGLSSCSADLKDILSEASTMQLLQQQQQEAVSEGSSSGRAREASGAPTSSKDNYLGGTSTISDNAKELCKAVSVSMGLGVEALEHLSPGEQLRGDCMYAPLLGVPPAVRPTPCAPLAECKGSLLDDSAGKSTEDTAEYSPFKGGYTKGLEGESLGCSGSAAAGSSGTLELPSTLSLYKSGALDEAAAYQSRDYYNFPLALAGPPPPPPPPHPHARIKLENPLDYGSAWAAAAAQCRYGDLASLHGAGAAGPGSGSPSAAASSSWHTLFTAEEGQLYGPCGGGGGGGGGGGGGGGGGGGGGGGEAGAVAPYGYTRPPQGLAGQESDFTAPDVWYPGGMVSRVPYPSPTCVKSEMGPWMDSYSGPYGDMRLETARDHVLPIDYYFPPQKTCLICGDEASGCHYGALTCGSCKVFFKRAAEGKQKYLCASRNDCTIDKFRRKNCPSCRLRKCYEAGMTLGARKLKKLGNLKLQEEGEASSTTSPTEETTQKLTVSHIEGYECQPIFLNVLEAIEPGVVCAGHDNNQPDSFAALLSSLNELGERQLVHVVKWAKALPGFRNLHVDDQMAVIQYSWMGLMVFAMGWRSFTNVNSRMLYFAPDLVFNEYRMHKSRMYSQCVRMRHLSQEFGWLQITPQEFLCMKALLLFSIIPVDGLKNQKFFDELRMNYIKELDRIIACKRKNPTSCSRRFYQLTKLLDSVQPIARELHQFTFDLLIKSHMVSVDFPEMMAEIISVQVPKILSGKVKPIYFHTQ
Threshold check on Emax at 20 h: at or above 20% gives Met, strictly below gives Not met.

Before answering, review these 5 worked examples.
COMPOUND_STRING | SYSTEM | QUALITATIVE_LABEL
CC(C)(C)C#C[C@]1(O)CC[C@H]2[C@@H]3CCC4=CC(=O)CCC4=C3[C@@H](c3ccc(N4CCOCC4)cc3)C[C@@]21C | androgen receptor (AR) (Homo sapiens) | Not met
CC#C[C@]1(O)CC[C@H]2[C@@H]3CCC4=CC(=O)CCC4=C3[C@@H](c3ccccc3)C[C@@]21C | androgen receptor (AR) (Homo sapiens) | Met
CC(C)(C)C#C[C@]1(O)CC[C@H]2[C@@H]3CCC4=CC(=O)CCC4=C3[C@@H](c3ccc(C4(C)COC4)cc3)C[C@@]21C | androgen receptor (AR) (Homo sapiens) | Not met
CC(C)c1ccc([C@H]2C[C@@]3(C)[C@@H](CC[C@@]3(O)C#CC(C)(C)C)[C@@H]3CCC4=CC(=O)CCC4=C32)cc1 | androgen receptor (AR) (Homo sapiens) | Met
CC#C[C@]1(O)CC[C@H]2[C@@H]3CCC4=CC(=O)CCC4=C3[C@@H](C3CCCCC3)C[C@@]21C | androgen receptor (AR) (Homo sapiens) | Met

Q: Textbook exercise: given the entry `CN(C)c1ccc([C@H]2C[C@@]3(C)[C@@H](CC[C@@]3(O)C#CC(C)(C)C)[C@@H]3CCC4=CC(=O)CC[C@@H]4[C@H]32)cc1` , state whether its Emax at 20 h is greater than or equal to 20%.
Result: Met

Q: Textbook exercise: given the entry `CC(C)C#C[C@]1(O)CC[C@H]2[C@@H]3CCC4=CC(=O)CCC4=C3[C@@H](c3ccc(N(C)C)cc3)C[C@@]21C` , state whether its Emax at 20 h is greater than or equal to 20%.
Result: Met

Q: Textbook exercise: given the entry `CC#C[C@]1(O)CC[C@H]2[C@@H]3CCC4=CC(=O)CCC4=C3[C@@H](CC)C[C@@]21C` , state whether its Emax at 20 h is greater than or equal to 20%.
Result: Met

Q: Textbook exercise: given the entry `CC(C)(C)C#C[C@]1(O)CC[C@H]2[C@@H]3CCC4=CC(=O)CCC4=C3[C@@H](c3ccc(N4CCCC4)cc3)C[C@@]21C` , state whether its Emax at 20 h is greater than or equal to 20%.
Result: Not met

Q: Textbook exercise: given the entry `CN(C)c1ccc([C@H]2C[C@@]3(C)[C@@H](CC[C@@]3(O)C#CC(F)(F)F)[C@@H]3CCC4=CC(=O)CCC4=C32)cc1` , state whether its Emax at 20 h is greater than or equal to 20%.
Result: Met

Q: Textbook exercise: given the entry `CN(C)c1cc(F)c([C@H]2C[C@@]3(C)[C@@H](CC[C@@]3(O)C#CC(C)(C)C)[C@@H]3CCC4=CC(=O)CCC4=C32)c(F)c1` , state whether its Emax at 20 h is greater than or equal to 20%.
Result: Not met

Q: Textbook exercise: given the entry `CC#C[C@]1(O)CC[C@H]2[C@@H]3CCC4=CC(=O)CCC4=C3[C@@H](c3cccc(N(C)C)c3)C[C@@]21C` , state whether its Emax at 20 h is greater than or equal to 20%.
Result: Not met

Data credit: ChEMBL document CHEMBL4145686
